# target-or-test-system: S. aureus GyrB ATPase (Staphylococcus aureus, UniProt P0A0K8)
# Sequence (P0AES4 whole entry): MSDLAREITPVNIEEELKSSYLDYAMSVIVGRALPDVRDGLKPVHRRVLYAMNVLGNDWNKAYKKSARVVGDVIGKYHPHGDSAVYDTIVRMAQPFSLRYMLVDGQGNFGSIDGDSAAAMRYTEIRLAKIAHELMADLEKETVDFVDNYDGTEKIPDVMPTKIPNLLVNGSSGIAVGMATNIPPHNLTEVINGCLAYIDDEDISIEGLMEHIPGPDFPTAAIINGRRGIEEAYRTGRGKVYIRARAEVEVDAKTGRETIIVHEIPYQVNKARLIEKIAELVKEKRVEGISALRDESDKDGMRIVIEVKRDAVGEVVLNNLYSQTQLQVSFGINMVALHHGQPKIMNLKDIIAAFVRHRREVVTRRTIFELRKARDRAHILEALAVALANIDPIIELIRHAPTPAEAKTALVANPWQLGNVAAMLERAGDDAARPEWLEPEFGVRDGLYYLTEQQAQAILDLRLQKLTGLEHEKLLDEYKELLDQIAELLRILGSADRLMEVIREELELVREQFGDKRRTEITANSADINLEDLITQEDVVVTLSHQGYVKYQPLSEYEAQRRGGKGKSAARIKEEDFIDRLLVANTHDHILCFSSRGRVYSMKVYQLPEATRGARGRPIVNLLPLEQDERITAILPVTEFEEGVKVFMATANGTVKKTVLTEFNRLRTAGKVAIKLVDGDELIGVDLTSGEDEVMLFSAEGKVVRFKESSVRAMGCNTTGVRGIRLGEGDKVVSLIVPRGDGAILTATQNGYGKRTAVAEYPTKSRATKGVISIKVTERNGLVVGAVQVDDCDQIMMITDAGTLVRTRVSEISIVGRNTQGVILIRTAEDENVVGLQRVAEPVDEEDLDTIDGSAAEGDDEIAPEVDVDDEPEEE
# Sequence (P0A0K8 whole entry): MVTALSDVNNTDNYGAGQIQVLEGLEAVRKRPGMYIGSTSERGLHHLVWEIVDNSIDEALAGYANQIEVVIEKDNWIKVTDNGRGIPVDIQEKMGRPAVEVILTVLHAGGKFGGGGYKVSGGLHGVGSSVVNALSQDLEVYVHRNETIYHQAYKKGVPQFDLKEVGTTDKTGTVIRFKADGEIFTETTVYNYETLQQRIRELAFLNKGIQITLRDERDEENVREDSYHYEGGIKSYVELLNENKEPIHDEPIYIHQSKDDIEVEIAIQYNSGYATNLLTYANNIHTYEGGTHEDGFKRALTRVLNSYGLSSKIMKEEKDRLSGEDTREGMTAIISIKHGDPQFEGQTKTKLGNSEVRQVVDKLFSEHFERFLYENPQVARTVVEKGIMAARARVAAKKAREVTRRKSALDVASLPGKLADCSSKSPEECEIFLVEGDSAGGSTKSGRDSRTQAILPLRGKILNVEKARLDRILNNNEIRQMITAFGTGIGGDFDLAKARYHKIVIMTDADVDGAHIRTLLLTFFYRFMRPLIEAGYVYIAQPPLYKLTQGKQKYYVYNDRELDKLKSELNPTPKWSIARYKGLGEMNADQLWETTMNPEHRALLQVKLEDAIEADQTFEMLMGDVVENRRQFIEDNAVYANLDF
# assay: S. aureus GyrB ATPase inhibition (ammonium molybdate/malachite green phosphate detection)
# Format: biochemical
# conditions-used: compound concentration of 1 μM
measured-attribute: inhibition at 1 µM (%)
Report only the number, with the unit % understood.

Examples from the recorded data:
1. COCCn1ccnc1-c1nc(N2CC[C@@H](NC(=O)c3[nH]c(C)c(C#N)c3Cl)[C@@H](OC)C2)sc1C(=O)O [Example 30] = 102
2. CO[C@H]1CN(c2nc(-c3nc(C)c(C)n3C)c(C(=O)O)s2)CC[C@H]1NC(=O)c1[nH]c(C)c(Cl)c1Cl [Example 32] = 99.9
3. CO[C@H]1CN(c2nc(-c3cn(C)cn3)c(C(=O)O)s2)CC[C@H]1NC(=O)c1[nH]c(C)c(Cl)c1Cl [Example 40] = 101
4. CO[C@H]1CN(c2nc(-c3ccn[nH]3)c(C(=O)O)s2)CC[C@H]1NC(=O)c1[nH]c(C)c(Cl)c1Cl [Example 23] = 100
5. CCOC(=O)c1sc(N2CC[C@@H](NC(=O)c3[nH]c(C)c(Cl)c3Cl)[C@@H](F)C2)nc1-c1cn(C)cn1 [Example 78] = 101

QUERY: Need inhibition at 1 µM, item COC(=O)c1sc(N2CC[C@@H](NC(=O)c3[nH]c(C)c(Cl)c3Cl)[C@@H](OC)C2)nc1-c1ncnn1C [Example 66]
RESULT: 101

QUERY: What about this compound? CO[C@H]1CN(c2nc(-c3csc(N(C)C)n3)c(C(=O)O)s2)CC[C@H]1NC(=O)c1[nH]c(C)c(Cl)c1Cl [Example 35]
RESULT: 96.6
